- Test system: Huh-7 cells
- Cond: Huh-7, HBV genotype H-1
Outcome Measure: CC50

Suppose we examine the molecule COc1cc(OC(F)F)c2nc3c(n2c1)C[C@@H](C(C)(C)C)c1cc(C(=O)O)c(=O)[nH]c1-3 [AB-161] ; what CC50 value has been reported?
> 50 µM

---

- System: Huh-7 cells
- Cond: Huh-7, HBV genotype H-2
Outcome Measure: CC50

// lookup CC50 | system=Huh-7 cells | key= COc1cc(OC(F)F)c2nc3c(n2c1)C[C@@H](C(C)(C)C)c1cc(C(=O)O)c(=O)[nH]c1-3
> 50 µM

---

- System: Huh-7 cells
- Cond: HBV transfected Huh-7, genotypes A–H
Outcome Measure: CC50

Suppose we examine the compound COc1cc(OC(F)F)c2nc3c(n2c1)C[C@@H](C(C)(C)C)c1cc(C(=O)O)c(=O)[nH]c1-3 ; what CC50 value has been reported?
> 50 µM

---

- Tested on: Huh-7 cells
- Cond: Huh-7, HBV genotype A
Outcome Measure: CC50

Suppose we examine the compound COc1cc(OC(F)F)c2nc3c(n2c1)C[C@@H](C(C)(C)C)c1cc(C(=O)O)c(=O)[nH]c1-3 ; what CC50 value has been reported?
> 50 µM

---

- Tested on: MRC-5 (human lung)
Outcome Measure: CC50

Suppose we examine the compound COc1cc(OC(F)F)c2nc3c(n2c1)C[C@@H](C(C)(C)C)c1cc(C(=O)O)c(=O)[nH]c1-3 ; what CC50 value has been reported?
> 30 µM

---

- Test system: Huh-7 cells
- Cond: Huh-7, HBV genotype E
Outcome Measure: CC50

Suppose we examine the compound COc1cc(OC(F)F)c2nc3c(n2c1)C[C@@H](C(C)(C)C)c1cc(C(=O)O)c(=O)[nH]c1-3 ; what CC50 value has been reported?
> 50 µM

---

- System: Huh-7 cells
- Cond: Huh-7, HBV genotype F
Outcome Measure: CC50

Suppose we examine the compound COc1cc(OC(F)F)c2nc3c(n2c1)C[C@@H](C(C)(C)C)c1cc(C(=O)O)c(=O)[nH]c1-3 ; what CC50 value has been reported?
> 50 µM

---

- Measurement Protocol: in vitro
- Type: in vitro ADME
- Cond: mouse, plasma
Outcome Measure: fraction unbound at 6 h, 500 ng/mL
Simply state the number, no unit and no words.

Suppose we examine the molecule COc1cc(OC(F)F)c2nc3c(n2c1)C[C@@H](C(C)(C)C)c1cc(C(=O)O)c(=O)[nH]c1-3 ; what fraction unbound at 6 h, 500 ng/mL value has been reported?
0.024

---

- Experimental System: recombinant human PAPD5 (Homo sapiens, UniProt Q8NDF8)
- Sequence (Q8NDF8 106-438 limits assumed): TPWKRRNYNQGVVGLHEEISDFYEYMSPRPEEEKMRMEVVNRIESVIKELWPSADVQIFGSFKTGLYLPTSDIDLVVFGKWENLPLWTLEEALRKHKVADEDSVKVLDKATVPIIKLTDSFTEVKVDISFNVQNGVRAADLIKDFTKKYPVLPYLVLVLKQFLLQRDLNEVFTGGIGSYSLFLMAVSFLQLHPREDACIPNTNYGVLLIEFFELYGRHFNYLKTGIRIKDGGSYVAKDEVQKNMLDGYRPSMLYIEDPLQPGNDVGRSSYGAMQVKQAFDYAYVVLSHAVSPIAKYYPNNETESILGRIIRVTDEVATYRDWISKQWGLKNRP
- Measurement Protocol: PAPD5 ATP depletion assay
- Cond: 12.5 nM enzyme, 750 nM ATP, 3 h, mean of 3 experiments; read-out: IC50, PAPD5-mediated incorporation of ATP
Outcome Measure: pIC50
The scale used: pIC50 is minus the common logarithm of the concentration in molar units.

Suppose we examine the molecule COc1cc(OC(F)F)c2nc3c(n2c1)C[C@@H](C(C)(C)C)c1cc(C(=O)O)c(=O)[nH]c1-3 ; what pIC50 value has been reported?
6.07

---

- Test system: HEp2 (human epithelial)
Outcome Measure: CC50

Suppose we examine the compound COc1cc(OC(F)F)c2nc3c(n2c1)C[C@@H](C(C)(C)C)c1cc(C(=O)O)c(=O)[nH]c1-3 [AB-161] ; what CC50 value has been reported?
> 30 µM

---

- Test system: Wild-type HBV
- Measurement Protocol: HBV polymerase variant phenotyping in Huh-7: wild-type
- Cond: Hepatitis B virus, Huh-7, read-out: HBV DNA, EC50
Outcome Measure: pEC50
The scale used: pEC50 is minus the common logarithm of the concentration in molar units.

Suppose we examine the molecule C=C1[C@H](CO)[C@@H](O)C[C@@H]1n1cnc2c(=O)[nH]c(N)nc21 ; what pEC50 value has been reported?
7.77

---

- Measurement Protocol: Cytotoxicity in HepG2-hNTCP cells
- Type: cell-based
- Cond: human, HBV-infected HepG2-hNTCP-C4 cells
Outcome Measure: CC50

Suppose we examine the compound COc1cc(OC(F)F)c2nc3c(n2c1)C[C@@H](C(C)(C)C)c1cc(C(=O)O)c(=O)[nH]c1-3 [AB-161] ; what CC50 value has been reported?
> 10 µM

---

- Experimental System: recombinant human PAPD7 (Homo sapiens, UniProt Q5XG87)
- Sequence (Q5XG87 226-558): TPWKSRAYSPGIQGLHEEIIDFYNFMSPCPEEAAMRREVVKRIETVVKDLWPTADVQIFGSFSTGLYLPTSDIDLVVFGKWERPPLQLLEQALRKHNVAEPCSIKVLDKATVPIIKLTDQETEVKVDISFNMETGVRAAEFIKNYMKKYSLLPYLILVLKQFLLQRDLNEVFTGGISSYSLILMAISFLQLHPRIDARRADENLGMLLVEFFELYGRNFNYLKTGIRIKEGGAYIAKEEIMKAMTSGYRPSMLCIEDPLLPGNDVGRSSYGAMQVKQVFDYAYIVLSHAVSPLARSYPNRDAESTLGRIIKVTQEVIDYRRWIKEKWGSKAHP
- Measurement Protocol: PAPD7 ATP depletion assay
- Cond: 12.5 nM enzyme, 750 nM ATP, 3 h, mean of 3 experiments; read-out: IC50, PAPD7-mediated incorporation of ATP
Outcome Measure: pIC50
The scale used: pIC50 is minus the common logarithm of the concentration in molar units.

Suppose we examine the molecule COc1cc(OC(F)F)c2nc3c(n2c1)C[C@@H](C(C)(C)C)c1cc(C(=O)O)c(=O)[nH]c1-3 ; what pIC50 value has been reported?
5.96

---

- Measurement Protocol: in vitro
- Format: in vitro ADME
- Cond: dog, plasma
Outcome Measure: fraction unbound at 6 h, 500 ng/mL
Simply state the number, no unit and no words.

Suppose we examine the molecule COc1cc(OC(F)F)c2nc3c(n2c1)C[C@@H](C(C)(C)C)c1cc(C(=O)O)c(=O)[nH]c1-3 [AB-161] ; what fraction unbound at 6 h, 500 ng/mL value has been reported?
0.047

---

- Measurement Protocol: in vitro
- Assay type: in vitro ADME
- Cond: rat, plasma
Outcome Measure: fraction unbound at 6 h, 500 ng/mL
Simply state the number, no unit and no words.

Suppose we examine the molecule COc1cc(OC(F)F)c2nc3c(n2c1)C[C@@H](C(C)(C)C)c1cc(C(=O)O)c(=O)[nH]c1-3 [AB-161] ; what fraction unbound at 6 h, 500 ng/mL value has been reported?
0.056

---

- Measurement Protocol: in vitro
- Cond: monkey
Outcome Measure: CC50

Suppose we examine the molecule COc1cc(OC(F)F)c2nc3c(n2c1)C[C@@H](C(C)(C)C)c1cc(C(=O)O)c(=O)[nH]c1-3 [AB-161] ; what CC50 value has been reported?
> 30 µM
